Target: histamine H4 receptor (Homo sapiens, UniProt Q9H3N8)
Construct: expressed in transfected cells; host or cells: CHO cells
Sequence (Q9H3N8 whole entry): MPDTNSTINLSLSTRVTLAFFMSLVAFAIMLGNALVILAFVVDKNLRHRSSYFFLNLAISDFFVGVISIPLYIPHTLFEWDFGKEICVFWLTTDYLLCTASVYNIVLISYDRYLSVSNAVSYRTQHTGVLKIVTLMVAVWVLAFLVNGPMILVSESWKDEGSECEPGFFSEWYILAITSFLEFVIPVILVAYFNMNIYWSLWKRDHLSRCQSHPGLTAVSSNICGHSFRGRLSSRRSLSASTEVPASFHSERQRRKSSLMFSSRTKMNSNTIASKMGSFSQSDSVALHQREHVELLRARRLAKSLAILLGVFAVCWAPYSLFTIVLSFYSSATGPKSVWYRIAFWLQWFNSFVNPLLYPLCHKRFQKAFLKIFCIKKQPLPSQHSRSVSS
Assay: H4 binding, method 2 ([3H]-histamine binding with Ysi WGA beads on CHO cell membranes)
Conditions: H4 binding, method 2; Ki calculated from IC50 (Cheng-Prussoff); read-out: Method 2 (Ki (nM))
Recorded Ki determines the label; the label ranges are lower range: < 100 nM; middle range: ≥ 100 nM and < 500 nM; upper range: ≥ 500 nM

COMPOUND	CATEGORY
CNC1CN(c2cc(NCc3ccc(C#N)cc3)nc(N)n2)C1 [Example 77]	middle range
C[C@@H]1CN(c2cc(NCCC(C)(C)C)nc(N)n2)CCN1C [Example 124]	upper range
CCNc1cc(N2C[C@H]3CN(C)C[C@H]3C2)nc(N)n1 [Example 36]	upper range
CN[C@@H]1CCN(c2cc(NCC3CC3)nc(N)n2)C1 [Example 9]	lower range
CN1CCN(c2cc(N3CCCC3)ncn2)CC1 [Example 114]	upper range
CN(C)[C@@H]1CCN(c2cc(NCC(C)(C)C)ncn2)C1 [Example 22]	lower range
CNC1CN(c2cc(NCC3CCCC3)nc(N)n2)C1 [Example 68]	lower range
CN1CCN(c2cc(NCc3cccc(F)c3)nc(N)n2)CC1 [Example 91]	middle range
COCCNc1cc(N2CCN(C)CC2)ncn1 [Example 110]	upper range
CNC1CN(c2cc(NCc3cccc(C)c3)nc(N)n2)C1 [Example 83]	lower range
CN1CCN(c2cc(NCCC(C)(C)C)ncn2)CC1 [Example 1]	middle range
CN1C[C@@H]2CN(c3cc(NCCC(C)(C)C)nc(N)n3)C[C@@H]2C1 [Example 40]	middle range
CNC1CN(c2cc(N3CCC(C)CC3)ncn2)C1 [Example 53]	upper range
CN1C[C@@H]2CN(c3cc(NC4CCC4)nc(N)n3)C[C@@H]2C1 [Example 43]	middle range
CNC1CN(c2cc(NCc3ccccc3)nc(N)n2)C1 [Example 79]	lower range
CNC1CN(c2cc(NCCC(C)C)ncn2)C1 [Example 55]	lower range
CCCNc1cc(N2C[C@H]3CN(C)C[C@H]3C2)nc(N)n1 [Example 34]	middle range
CC(C)(C)CCNc1cc(N2C[C@H]3CCCN[C@H]3C2)ncn1 (racemic) [Example 328]	upper range
CC(C)CNc1cc(N2C[C@H]3CCCN[C@H]3C2)ncn1 (relative stereo) [Example 125]	middle range
CN1C[C@@H]2CN(c3cc(NCC4CC4)nc(N)n3)C[C@@H]2C1 [Example 38]	middle range
CCNc1cc(N2C[C@H]3CN(C)C[C@H]3C2)ncn1 [Example 117]	upper range

====

Reported Ki is given for each of the following compounds.
Biological target: histamine H4 receptor (Homo sapiens)
Construct: expressed in transfected cells; host or cells: CHO cells
Assay: H4 binding, method 1 ([3H]-histamine filtration binding on CHO cell membranes)
Settings: H4 binding, method 1; Ki calculated from IC50 (Cheng-Prussoff)
READOUT: Ki (nM)

COMPOUND	TARGET DESC	NUMERIC VALUE
CC(C)CNc1cc(N2CC[C@@H](N(C)C)C2)ncn1	histamine H4 receptor (Homo sapiens)	30.5
CC[C@@H](C)Nc1cc(N2CC[C@@H](NC)C2)nc(N)n1	histamine H4 receptor (Homo sapiens)	16.9
CCNc1cc(N2CC[C@@H]3NCC[C@@H]3C2)nc(N)n1 (racemic)	histamine H4 receptor (Homo sapiens)	31
CC(C)(C)CCNc1cc(N2CC(N3CCCC3)C2)ncn1	histamine H4 receptor (Homo sapiens)	297
CNC1CN(c2cc(NCCC(C)(C)C)ncn2)C1	histamine H4 receptor (Homo sapiens)	37.7
CNc1cc(N2CC[C@@H](NC)C2)ncn1	histamine H4 receptor (Homo sapiens)	623
CNC1CN(c2cc(NCCC(C)(C)C)nc(N)n2)C1	histamine H4 receptor (Homo sapiens)	4.63
Nc1nc(NC2CC2)cc(N2CCC3NCCC3C2)n1 (stereo not drawn)	histamine H4 receptor (Homo sapiens)	9.3
CN[C@@H]1CCN(c2cc(NCC3CC3)nc(N)n2)C1 [Example 9]	histamine H4 receptor (Homo sapiens)	2.7

Numbers sourced from patent US7943628B2.
